Molecular target: human TRPV1 (Homo sapiens (Human), UniProt Q8NER1)
Sequence (Q8NER1 whole entry): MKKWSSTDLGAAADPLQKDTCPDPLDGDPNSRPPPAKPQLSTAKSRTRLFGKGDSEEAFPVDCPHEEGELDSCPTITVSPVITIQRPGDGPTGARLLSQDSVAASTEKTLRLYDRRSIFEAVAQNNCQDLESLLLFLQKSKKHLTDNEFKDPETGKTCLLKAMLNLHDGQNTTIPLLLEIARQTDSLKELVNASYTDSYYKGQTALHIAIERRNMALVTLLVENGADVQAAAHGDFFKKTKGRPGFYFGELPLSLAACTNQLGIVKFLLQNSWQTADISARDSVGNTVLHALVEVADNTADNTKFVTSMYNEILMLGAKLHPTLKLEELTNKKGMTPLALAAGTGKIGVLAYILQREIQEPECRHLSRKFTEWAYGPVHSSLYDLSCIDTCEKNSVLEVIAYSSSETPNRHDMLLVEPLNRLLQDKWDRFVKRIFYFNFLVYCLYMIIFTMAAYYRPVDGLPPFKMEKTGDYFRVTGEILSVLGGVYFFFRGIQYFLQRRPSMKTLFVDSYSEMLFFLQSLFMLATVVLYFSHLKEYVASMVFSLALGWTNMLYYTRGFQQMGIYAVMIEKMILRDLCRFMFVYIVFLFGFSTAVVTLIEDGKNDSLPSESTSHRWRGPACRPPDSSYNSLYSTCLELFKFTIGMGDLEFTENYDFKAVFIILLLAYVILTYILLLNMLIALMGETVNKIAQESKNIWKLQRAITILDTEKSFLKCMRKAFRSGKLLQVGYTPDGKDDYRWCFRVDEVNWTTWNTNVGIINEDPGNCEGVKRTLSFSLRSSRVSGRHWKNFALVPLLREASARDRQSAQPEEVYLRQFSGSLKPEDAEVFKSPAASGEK
Assay: Acid Activation Assay (pH 5.0, intracellular Ca2+, FLIPR)
Type: cell-based
Details: percentage of the maximal pH 5.0-induced response remaining; recombinant HEK293 hTRPV1 cells; maximum concentration tested 37.5 μM
Procedure: Dulbecco's modified Eagle's medium (DMEM) with 4.5 m g/mL D-glucose, fetal bovine serum, L-glutamine, and 2-morpholinoethanesulfonic acid (MES) were purchased from Sigma-Aldrich Co. (St. Louis, Mo.). […] The functional activity of compounds at the TRPV1 receptor was determined by measurement of intracellular Ca^2+ levels ([Ca^2+]i) using the Fluorescence Imaging Plate Reader (FLIPR)TETRA®. […] The intensity of the fluorescence was captured and digitally transferred to an interfaced PC. […]
Exercise: for every item that follows, state its recorded human TRPV1 H^+ (max % remain).
Value expressed in %; do not type the unit.

Input: // fetch human TRPV1 (Homo sapiens (Human), UniProt Q8NER1) human TRPV1 H^+ (max % remain) for O=C(Nc1ccc2c(c1)NC(=O)N(CCO)C2)N[C@@H]1CC(CF)(CF)Oc2cc(C(F)(F)F)ccc21
Output: 36

Input: // fetch human TRPV1 (Homo sapiens (Human), UniProt Q8NER1) human TRPV1 H^+ (max % remain) for O=C(Nc1ccc2c(c1)NC(=O)N(CCO)C2)N[C@@H]1CC(CF)(CF)Oc2cc(F)ccc21
Output: 21

Input: // fetch human TRPV1 (Homo sapiens (Human), UniProt Q8NER1) human TRPV1 H^+ (max % remain) for C[C@@]1(CF)C[C@@H](NC(=O)Nc2ccc3c(c2)NC(=O)N(CCO)C3)c2ccc(Cl)cc2O1
Output: 2

Input: // fetch human TRPV1 (Homo sapiens (Human), UniProt Q8NER1) human TRPV1 H^+ (max % remain) for O=C1CCc2ccc(NC(=O)N[C@@H]3CCOc4ccccc43)cc2N1
Output: 41

Input: // fetch human TRPV1 (Homo sapiens (Human), UniProt Q8NER1) human TRPV1 H^+ (max % remain) for C[C@@]1(C(F)F)C[C@@H](NC(=O)Nc2ccc3c(c2)NC(=O)N(CCO)C3)c2ccccc2O1
Output: 14

Input: // fetch human TRPV1 (Homo sapiens (Human), UniProt Q8NER1) human TRPV1 H^+ (max % remain) for C[C@@]1(C(F)F)C[C@@H](NC(=O)Nc2ccc3c(c2)NC(=O)CC3)c2ccc(Cl)cc2O1
Output: 34

Input: // fetch human TRPV1 (Homo sapiens (Human), UniProt Q8NER1) human TRPV1 H^+ (max % remain) for O=C1CCc2ccc(NC(=O)N[C@@H]3CCOc4cc(OC(F)(F)F)ccc43)cc2N1
Output: 27

Input: // fetch human TRPV1 (Homo sapiens (Human), UniProt Q8NER1) human TRPV1 H^+ (max % remain) for Cn1c(=O)ccc2c(NC(=O)N[C@@H]3CC(CF)(CF)Oc4ccc(F)cc43)cccc21
Output: 46

* * *

Target: human TRPV1 (Homo sapiens (Human), UniProt Q8NER1)
Experiment: Acid Activation Assay (pH 5.0, intracellular Ca2+, FLIPR)
Format: cell-based
Conditions: percentage of the maximal pH 5.0-induced response remaining; recombinant HEK293 hTRPV1 cells; maximum concentration tested 37.5 μM
Exercise: for every item that follows, state its recorded human TRPV1 H^+ (max % remain).
Value expressed in %; do not type the unit.

Input: Quick one: human TRPV1 H^+ (max % remain) for CN1C(=O)CCc2ccc(NC(=O)N[C@@H]3C[C@@](C)(C(F)F)Oc4ccccc43)cc21 [Example 292] ?
Output: 68

Input: Quick one: human TRPV1 H^+ (max % remain) for CN1C(=O)NCc2c(NC(=O)N[C@@H]3CC(CF)(CF)Oc4cc(OC(F)(F)F)ccc43)cccc21 [Example 149] ?
Output: 16

Input: Quick one: human TRPV1 H^+ (max % remain) for CN1C(=O)CCc2ccc(NC(=O)N[C@@H]3CC(CF)(CF)Oc4cc(C(F)(F)F)ccc43)cc21 [Example 263] ?
Output: 51

Input: Quick one: human TRPV1 H^+ (max % remain) for CC1(C)C[C@H](NC(=O)Nc2ccc3c(c2)NC(=O)CC3)c2cc(F)ccc2O1 [Example 243] ?
Output: 45

Input: Quick one: human TRPV1 H^+ (max % remain) for CN1C(=O)NCc2c(NC(=O)N[C@@H]3CC(CF)(CF)Oc4cc(C(F)(F)F)ccc43)cccc21 [Example 146] ?
Output: 15

Input: Quick one: human TRPV1 H^+ (max % remain) for Cn1c(=O)ccc2c(NC(=O)N[C@@H]3CC(CF)(CF)Oc4cc(Cl)ccc43)cccc21 [Example 20] ?
Output: 34

Input: Quick one: human TRPV1 H^+ (max % remain) for CN1C(=O)CCc2ccc(NC(=O)N[C@@H]3CC(C)(C)Oc4c3ccc(Cl)c4F)cc21 [Example 294] ?
Output: 71

Input: Quick one: human TRPV1 H^+ (max % remain) for CCC1(CC)C[C@@H](NC(=O)Nc2ccc3c(c2)NC(=O)CO3)c2ccc(Cl)cc2O1 [Example 104] ?
Output: 80

Input: Quick one: human TRPV1 H^+ (max % remain) for Cn1c(=O)ccc2c(NC(=O)N[C@@H]3CC(CF)(CF)Oc4cc(F)ccc43)cccc21 [Example 27] ?
Output: 42

Input: Quick one: human TRPV1 H^+ (max % remain) for CN1C(=O)CCc2ccc(NC(=O)N[C@@H]3CC(C)(C)Oc4ccc(F)cc43)cc21 [Example 274] ?
Output: 81

Input: Quick one: human TRPV1 H^+ (max % remain) for CN1C(=O)CCc2ccc(NC(=O)N[C@@H]3CC(C)(C)Oc4c(F)cccc43)cc21 [Example 257] ?
Output: 72

Input: Quick one: human TRPV1 H^+ (max % remain) for Cn1c(=O)ccc2c(NC(=O)N[C@@H]3CCc4cc(C(F)(F)F)ccc43)cccc21 [Example 86] ?
Output: 23

Input: Quick one: human TRPV1 H^+ (max % remain) for CCC1(CC)C[C@@H](NC(=O)Nc2cccc3c2CNC(=O)N3C)c2ccccc2O1 [Example 140] ?
Output: 27

Input: Quick one: human TRPV1 H^+ (max % remain) for COCC1(COC)C[C@@H](NC(=O)Nc2ccc3c(c2)N(C)C(=O)CC3)c2cc(F)ccc2O1 [Example 279] ?
Output: 50

Input: Quick one: human TRPV1 H^+ (max % remain) for CN1C(=O)NCc2c(NC(=O)N[C@@H]3C[C@](C)(C(F)F)Oc4cc(Cl)ccc43)cccc21 [Example 10] ?
Output: 19

Input: Quick one: human TRPV1 H^+ (max % remain) for CN1C(=O)NCc2c(NC(=O)N[C@@H]3C[C@](C)(CF)Oc4cc(Cl)ccc43)cccc21 [Example 7] ?
Output: 27

Input: Quick one: human TRPV1 H^+ (max % remain) for CN1C(=O)CCc2ccc(NC(=O)N[C@@H]3CC(C)(C)Oc4cc(F)ccc43)cc21 [Example 253] ?
Output: 31

Input: Quick one: human TRPV1 H^+ (max % remain) for Cn1c(=O)ccc2c(NC(=O)N[C@@H]3CC(C)(C)Oc4c3ccc(F)c4F)cccc21 [Example 81] ?
Output: 39

Input: Quick one: human TRPV1 H^+ (max % remain) for CC1(C)C[C@@H](NC(=O)Nc2ccc3c(c2)NC(=O)CC3)c2ccc(Cl)c(F)c2O1 [Example 39] ?
Output: 34

Input: Quick one: human TRPV1 H^+ (max % remain) for Cn1c(=O)ccc2c(NC(=O)N[C@@H]3CC(C)(C)Oc4cc(Cl)ccc43)cccc21 [Example 23] ?
Output: 50

Input: Quick one: human TRPV1 H^+ (max % remain) for O=C(Nc1ccc2c(c1)NC(=O)N(CCO)C2)N[C@H]1CC2(CCC2)Oc2ccc(F)cc21 [Example 56] ?
Output: 67

Input: Quick one: human TRPV1 H^+ (max % remain) for O=C(Nc1ccc2c(c1)NC(=O)N(CCO)C2)N[C@@H]1CCOc2ccc(F)cc21 [Example 52] ?
Output: 32

Input: Quick one: human TRPV1 H^+ (max % remain) for Cn1c(=O)ccc2c(NC(=O)N[C@@H]3CCOc4ccc(F)cc43)cccc21 [Example 82] ?
Output: 56

Input: Quick one: human TRPV1 H^+ (max % remain) for CCC1(CC)C[C@@H](NC(=O)Nc2ccc3c(c2)N(C)C(=O)CC3)c2ccc(Cl)c(Cl)c2O1 [Example 264] ?
Output: 82

Input: Quick one: human TRPV1 H^+ (max % remain) for CN1C(=O)NCc2c(NC(=O)N[C@@H]3C[C@@](C)(C(F)F)Oc4cc(Cl)ccc43)cccc21 [Example 11] ?
Output: 32

Input: Quick one: human TRPV1 H^+ (max % remain) for CN1C(=O)CCc2ccc(NC(=O)N[C@@H]3C[C@](C)(C(F)F)Oc4ccccc43)cc21 [Example 293] ?
Output: 72

Input: Quick one: human TRPV1 H^+ (max % remain) for Cn1c(=O)ccc2c(NC(=O)N[C@@H]3CC(C)(C)Oc4ccc(F)cc43)cccc21 [Example 24] ?
Output: 60

Input: Quick one: human TRPV1 H^+ (max % remain) for CN1Cc2ccc(NC(=O)N[C@@H]3C[C@](C)(CF)Oc4cc(C(F)(F)F)ccc43)cc2NC1=O [Example 206] ?
Output: 43

Input: Quick one: human TRPV1 H^+ (max % remain) for O=C1COc2ccc(NC(=O)N[C@@H]3CC(CF)(CF)Oc4cc(C(F)(F)F)ccc43)cc2N1 [Example 324] ?
Output: 96

Input: Quick one: human TRPV1 H^+ (max % remain) for CCC1(CC)C[C@@H](NC(=O)Nc2ccc3c(c2)NC(=O)N(CCO)C3)c2ccccc2O1 [Example 45] ?
Output: 4

Input: Quick one: human TRPV1 H^+ (max % remain) for CC1(C)C[C@@H](NC(=O)Nc2ccc3c(c2)NC(=O)N(CCO)C3)c2cccc(F)c2O1 [Example 42] ?
Output: 8
